Assay: Pharmacokinetic study in mice
Assay type: in vivo, nude mice (nu/nu)
Conditions: female, nude (nu/nu), mouse; Lungs; Nu/nu; IV 35 mg/kg
PROPERTY_NAME: half-life (h)
Give the value in h but do not write h after it.

Suppose we examine the molecule COc1ccc(S(=O)(=O)N(Cc2ccc3c(c2)C=CC(C)(C)O3)c2ccccc2)cc1OC ; what half-life value has been reported? 2

* * *

Assay: Pharmacokinetic study in mice
Type: in vivo, CD-1 mice
Settings: female, mouse; Liver; CD-1; IV 35 mg/kg
Procedure: Female CD-1 and nude mice were administered 35 mg/kg body weight of KCN1 as either a single intravenous injection via a tail vein or via an intraperitoneal injection. […] The collection containers and cages were washed twice with 0.9% saline solution, and each urine collection and each wash was analyzed separately, then values were added together for each mouse to determine the total KCN1 present in urine during the collection period. […]
PROPERTY_NAME: half-life (min)
// note: answer is a bare numeric in min

Entry COc1ccc(S(=O)(=O)N(Cc2ccc3c(c2)C=CC(C)(C)O3)c2ccccc2)cc1OC has what half-life? 69
